- Tested on: HIV-1 NDK
- PROTOCOL_DETAILS: HIV-1 infection of C8166 cells (syncytia formation, p24 ELISA) with HIV-1 NDK
- Format: cell-based
- Design: key: ++, +, (+), (+)− and − represent decreasing numbers of syncitia formed; ++, +, (+), (+)− and − represent decreasing numbers of syncitia formed; ++, +, (+), (+)− and − represent decreasing numbers of syncitia formed; ++, +, (+), (+)− and − represent decreasing numbers of syncitia formed; ++, +, (+), (+)− and − represent decreasing numbers of syncitia formed
- PROTOCOL_CONDITIONS: 0.1 μM, Day 7
Square brackets hold non-standard residues; d marks the D form. Peptide text beside a SMILES is read from it. Ava = NCCCCC(=O)O
PARAMETER_MEASURED: syncitia formed, Day 7

In the examples that follow, each entry is paired with its recorded syncitia formed, Day 7.
[
  {
    "COMPOUND": "N=C(N)NCCC[C@H](NC(=O)CNC(=O)[C@@H]1CCCN1C(=O)CN)C(=O)NCCCCC(=O)O [GPGR valeric acid, GPGR-NHCH2CH2CH2CH2COOH] (H-GPGR[Ava]-OH; N-terminus assumed)",
    "syncitia formed, Day 7": "++"
  },
  {
    "COMPOUND": "C[C@H](NC(=O)[C@H](CCCNC(=N)N)NC(=O)CNC(=O)[C@@H]1CCCN1C(=O)CN)C(=O)N[C@@H](Cc1ccccc1)C(=O)NCCCCC(=O)O [SPC3 monomer valeric acid, GPGRAF-NHCH2CH2CH2CH2COOH] (H-GPGRAF[Ava]-OH; N-terminus assumed)",
    "syncitia formed, Day 7": "++"
  },
  {
    "COMPOUND": "NCC(=O)N1CCC[C@H]1C(=O)NCC(=O)NCCCCC(=O)O [GPG valeric acid, GPG-NHCH2CH2CH2CH2COOH] (H-GPG[Ava]-OH; N-terminus assumed)",
    "syncitia formed, Day 7": "++"
  },
  {
    "COMPOUND": "C[C@H](NC(=O)[C@H](CCCNC(=N)N)NC(=O)CNC(=O)[C@@H]1CCCN1C(=O)CN)C(=O)NCCCCC(=O)O [GPGRA valeric acid, GPGRA-NHCH2CH2CH2CH2COOH] (H-GPGRA[Ava]-OH; N-terminus assumed)",
    "syncitia formed, Day 7": "++"
  },
  {
    "COMPOUND": "NCC(=O)N1CCC[C@H]1C(=O)NCC(=O)O [GPG, reference compound] (H-Gly-Pro-Gly-OH)",
    "syncitia formed, Day 7": "++"
  }
]

Now for another entry.
// sample N=C(N)NCCC[C@H](NC(=O)CNC(=O)[C@@H]1CCCN1C(=O)CN)C(=O)O [GPGR, reference compound] (H-GPGR-OH; N-terminus and C-terminus assumed) , its syncitia formed, Day 7 was ++

----------
- Test system: HIV-1 NDK
- PROTOCOL_DETAILS: HIV-1 infection of C8166 cells (syncytia formation, p24 ELISA) with HIV-1 NDK
- Assay type: cell-based
- Set-up: key: ++, +, (+), (+)− and − represent decreasing numbers of syncitia formed; ++, +, (+), (+)− and − represent decreasing numbers of syncitia formed; ++, +, (+), (+)− and − represent decreasing numbers of syncitia formed; ++, +, (+), (+)− and − represent decreasing numbers of syncitia formed; ++, +, (+), (+)− and − represent decreasing numbers of syncitia formed
- PROTOCOL_CONDITIONS: 0.1 μM, Day 5
Square brackets hold non-standard residues; d marks the D form. Peptide text beside a SMILES is read from it. Ava = NCCCCC(=O)O
PARAMETER_MEASURED: syncitia formed, Day 5

[
  {
    "COMPOUND": "C[C@H](NC(=O)[C@H](CCCNC(=N)N)NC(=O)CNC(=O)[C@@H]1CCCN1C(=O)CN)C(=O)N[C@@H](Cc1ccccc1)C(=O)NCCCCC(=O)O [SPC3 monomer valeric acid, GPGRAF-NHCH2CH2CH2CH2COOH] (H-GPGRAF[Ava]-OH; N-terminus assumed)",
    "ENDPOINT_VALUE": "+"
  },
  {
    "COMPOUND": "N=C(N)NCCC[C@H](NC(=O)CNC(=O)[C@@H]1CCCN1C(=O)CN)C(=O)O [GPGR, reference compound] (H-GPGR-OH; N-terminus and C-terminus assumed)",
    "ENDPOINT_VALUE": "(+)"
  }
]
